Source: patent US7476673B2

Target: RARγ (Homo sapiens, UniProt P13631)
Construct: % Efficiency γ; other: percentage of maximum compared to standard TTNPB
Assay: chimeric receptor transactivation assay, RARγ
Type: cell-based
Conditions: percentage of maximum compared to standard TTNPB
So I've got a bunch of molecules here, and I need their % Efficiency γ values.
Write down the numeric answer in % and omit the unit.

So what does the record say about % Efficiency γ for CC1=CCC(C)(C)c2cc(C(/C=C/c3ccc(C(=O)O)cc3)=N/O)ccc21 ?
91

Request: CC1(C)CCSc2ccc(C(/C=C/c3ccc(C(=O)O)cc3F)=N/O)cc21
90

Also, CC1(C)CC(C)(C)c2cc(C(C=Cc3ccc(C(=O)O)cc3)=NO)ccc21 [drawing 31] please.
91

Request: CC1(C)CCSc2ccc(C(C=Cc3ccc(C(=O)O)cc3)=NO)cc21 [drawing 18]
88

One more molecule: CC1=CCC(C)(C)c2cc(C(/C=C/c3ccc(C(=O)O)cc3F)=N\O)ccc21
90

* * *

Biological target: RARγ (Homo sapiens, UniProt P13631)
Construct: % Efficiency γ; other: percentage of maximum compared to standard TTNPB
Test: chimeric receptor transactivation assay, RARγ
Conditions: chimeric receptor transactivation; read-out: RAR EC50 γ
reported-metric: EC50

Short answer please: EC50, RARγ (Homo sapiens, UniProt P13631), entry CC1(C)CC(C)(C)c2cc(C(C=Cc3ccc(C(=O)O)cc3)=NO)ccc2O1 [drawing 24]
> 10 µM

And the next one, CC1(C)CCCc2cc(C(C=Cc3ccc(C(=O)O)cc3)=NO)ccc21 [drawing 16] ?
> 10 µM

Try this compound next: CC1(C)CC(C)(C)c2cc(C(/C=C/c3ccc(C(=O)O)cc3F)=N\O)ccc21
0.009 µM

* * *

Biological target: RARγ (Homo sapiens)
Construct: % Efficiency γ; other: percentage of maximum compared to standard TTNPB
Sequence (P13631 185-454 limits assumed): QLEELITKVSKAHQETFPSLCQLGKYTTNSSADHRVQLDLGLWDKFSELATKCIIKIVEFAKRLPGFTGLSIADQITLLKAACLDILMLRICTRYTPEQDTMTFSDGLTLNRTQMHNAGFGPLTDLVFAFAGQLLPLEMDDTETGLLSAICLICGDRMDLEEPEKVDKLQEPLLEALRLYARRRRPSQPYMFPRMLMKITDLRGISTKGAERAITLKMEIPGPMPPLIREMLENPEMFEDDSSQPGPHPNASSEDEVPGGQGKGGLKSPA
Test: chimeric receptor transactivation assay, RARγ
Type: cell-based
Conditions: percentage of maximum compared to standard TTNPB
reported-metric: % Efficiency γ (%)
The answer is to be given in %; state only the numeric part.

Need % Efficiency γ, item CC1=CCC(C)(C)c2cc(C(/C=C/c3ccc(C(=O)O)cc3)=N\O)ccc21
95

Likewise for CC1=CCC(C)(C)c2cc(C(/C=C/c3ccc(C(=O)O)cc3F)=N/O)ccc21 ?
92

And what about the molecule CC1(C)CC(C)(C)c2cc(C(C=Cc3ccc(C(=O)O)cc3)=NO)ccc21 [drawing 30] ?
71
